test system: HT-29; experiment: Anticancer activity aganist human HT-29 cells; assay type: functional; conditions: read-out: ED50 (the source's name)
pEC50: −log10 of the molar value.
Measured pEC50, listed per entry.
result.type: pEC50

1. CC(=O)O[C@H]1C(=O)[C@@]2(C)[C@H]([C@H](OC(=O)c3ccccc3)[C@]3(O)C[C@H](OC(=O)[C@H](O)[C@@H](NC(=O)c4ccccc4)c4ccccc4)C(C)=C1C3(C)C)[C@]1(OC(C)=O)CO[C@@H]1C[C@@H]2O ... 10.00
2. CC(C)=CCC[C@]1(C)C=Cc2c(O)c3c(c(CC=C(C)C)c2O1)O[C@]12C(=C[C@@H]4C[C@H]1C(C)(C)O[C@@]2(C/C=C(/C)C(=O)O)C4=O)C3=O ... 6.32
3. CC(C)=CCc1c2c(c(O)c3c1O[C@]14C(=C[C@@H]5C[C@H]1C(C)(C)O[C@@]4(C/C=C(/C)C(=O)O)C5=O)C3=O)C=CC(C)(C)O2 ... 6.44
